Reported TGI values for a set of molecules
test system: U251 CNS; experiment: NCI tumour cell line growth inhibition, 48 h

Below are worked cases with known answers.
Oc1cc(O)c2c(-c3c(O)c(-c4ccc(O)c(O)c4)[o+]c4cc(O)cc(O)c34)c(O)c(-c3ccc(O)c(O)c3)[o+]c2c1: > 100 µM
C=CC(=O)N1CCN(c2nc(=O)n(-c3c(C)ccnc3C(C)C)c3nc(-c4c(O)cccc4F)c(F)cc23)[C@@H](C)C1: > 100 µM
CC(=O)O[C@H]1C(=O)[C@@]2(C)[C@H]([C@H](OC(=O)c3cccc(C(F)(F)F)c3)[C@]3(O)C[C@H](OC(=O)[C@H](O)[C@@H](NC(=O)c4ccccc4)c4ccccc4)C(C)=C1C3(C)C)[C@]1(OC(C)=O)CO[C@@H]1C[C@@H]2O: 0.0196 µM

Q: Fill in the blank: the reported TGI of COc1cc(-c2nn(-c3cccc(NC(=O)Nc4cc(C(F)(F)F)cc(C(F)(F)F)c4)c3)cc2-c2ccncc2)ccc1Cl is ____.
Ans: 1.13 µM

Q: # TGI lookup, item O=C1CCCCCCCC/C=C\CC(c2ccco2)O1 (centres undefined)
Ans: 48.2 µM

Q: Given the molecule COc1ccccc1CCN=C1NC(=O)/C(=C/c2ccc3ncccc3c2)S1 , what is its reported TGI?
Ans: 24.9 µM

----------
test system: OVCAR-5 ovarian; assay: NCI tumour cell line growth inhibition, 48 h
MEASURED ENDPOINT: TGI

Record excerpt, results attached:
CCC/C(=N/NC(=O)C(N)=O)C(CC)C(=O)CCC(=O)N(Cc1ccccc1)Cc1ccccc1 (stereo not given): > 100 µM
CC(C)(C)c1cc(C(C)(C)C)c(SS(=O)(=O)O)c(O)c1O: > 100 µM

Q: TGI lookup needed for COc1ccc(/C=C/C(=O)c2ccc(SC)cc2)cc1OC , thanks.
Ans: 31.7 µM

Q: May I ask what TGI has been recorded for c1ccc2[nH]c(-c3ccc(NN=Nc4ccncc4)cc3)nc2c1 ?
Ans: > 100 µM

----------
Here, each record is paired with measured GI50 data.
tested on: KM12 colon; assay: NCI tumour cell line growth inhibition, 48 h

O=C(CN1CCN(CCCOc2c(-c3ccccc3)oc3ccccc3c2=O)CC1)Nc1ccc(Cl)cc1C(=O)c1ccccc1Cl: 5.73 µM
O=c1c2ccccc2n(C[C@H]2CO2)c2ccccc12: 2.19 µM
O=C(Nc1cc(Cl)cc(Cl)c1)c1ccc(NC2=C(Cl)C(=O)N(Cc3ccc(Cl)cc3Cl)C2=O)cc1: 13.6 µM

Q: Any idea what GI50 was measured for CN(C)c1ccc([O][Bi]([Cl])[Cl])cc1 ?
Ans: > 100 µM

Q: Bench note: what GI50 did COc1ccc(-n2nnnc2-c2c[nH]c3c(F)cc(F)cc23)cc1 show?
Ans: > 100 µM

----------
Collected TGI values appear next to each entry.
test system: OVCAR-5 ovarian; assay: NCI tumour cell line growth inhibition, 48 h

Example compounds with recorded TGI:
CC(OC(C)(C)C)[C@H](NC(=O)OC(C)(C)C)C(=O)O (stereo not given in full): > 100 µM
O=C(/C=C/c1cccnc1)NCCCCC1CCCN(C(=O)c2ccccc2)C1 (stereo not given): > 100 µM
O/C(=C\c1nc2ccccc2nc1/C=C(\O)c1ccc(Cl)cc1)c1ccccc1: > 100 µM
O=c1c2ccccc2n(C[C@H]2CO2)c2ccccc12: 6.41 µM
CN(C)c1ccc([O][Bi]([Cl])[Cl])cc1: > 100 µM

// moving on: another record for TGI
Q: Can you look up the measured TGI of CC(=O)Nc1ccc(NC(=O)c2c(Cl)c(Cl)c(Cl)c(Cl)c2-c2nc3ccccc3[nH]2)cc1 for me?
Ans: > 100 µM

Data origin, for the record: PubChem BioAssay (NCI)
